These data points were gathered from patent US20060183194A1.

- study-target: T1, ErbB-4 receptor-Ig fusion (human, UniProt Q15303 26-651)
- T1 construct: extracellular domain;range 224-C-terminus; also called ErbB-4-Ig; not shown: human IgG heavy chain constant region from His224 (hinge) on
- T1 sequence: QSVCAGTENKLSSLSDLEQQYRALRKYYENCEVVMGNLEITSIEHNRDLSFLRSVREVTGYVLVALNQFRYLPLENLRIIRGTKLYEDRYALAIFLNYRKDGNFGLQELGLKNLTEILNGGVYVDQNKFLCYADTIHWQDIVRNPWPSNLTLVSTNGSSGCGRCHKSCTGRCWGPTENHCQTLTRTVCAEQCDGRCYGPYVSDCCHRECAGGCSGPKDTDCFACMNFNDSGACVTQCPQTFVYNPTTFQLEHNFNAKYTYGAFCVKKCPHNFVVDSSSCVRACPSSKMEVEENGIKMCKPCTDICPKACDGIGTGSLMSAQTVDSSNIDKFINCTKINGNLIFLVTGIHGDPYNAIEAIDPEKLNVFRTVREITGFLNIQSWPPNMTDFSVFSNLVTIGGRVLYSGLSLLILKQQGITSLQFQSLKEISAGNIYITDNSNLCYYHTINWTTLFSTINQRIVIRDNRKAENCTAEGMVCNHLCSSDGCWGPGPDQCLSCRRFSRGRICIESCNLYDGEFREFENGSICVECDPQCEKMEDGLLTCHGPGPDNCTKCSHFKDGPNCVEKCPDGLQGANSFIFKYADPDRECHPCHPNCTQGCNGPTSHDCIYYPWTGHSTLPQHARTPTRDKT
- run-description: phage ELISA; soluble ErbB-4-Ig as competitor
reported-property: EC50 (nM)
Give just the numeric value; nM need not be written.

Consider the worked cases shown below.
HRG-β1 177-244 G193A on phage (ligand, not shown: M13 pIII C-terminal fragment (from pIII residue 247), the phage display partner) SHLVKCAEKEKTFCVNAGECFMVKDLSNPSRYLCKCPNEFTGDRCQNYVMASFYKHLGIEFMEAEELY ... 23
HRG-β1 177-244 L179A on phage (ligand, not shown: M13 pIII C-terminal fragment (from pIII residue 247), the phage display partner) SHAVKCAEKEKTFCVNGGECFMVKDLSNPSRYLCKCPNEFTGDRCQNYVMASFYKHLGIEFMEAEELY ... 56
HRG-β1 177-244 E215A on phage (ligand, not shown: M13 pIII fragment from residue 247 to the C-terminus (phage display carrier) and any cloning-site junction) SHLVKCAEKEKTFCVNGGECFMVKDLSNPSRYLCKCPNAFTGDRCQNYVMASFYKHLGIEFMEAEELY ... 32

### Prompt // EC50 lookup, key: HRG-β1 177-244 V199A on phage (ligand, not shown: M13 pIII fragment from residue 247 to the C-terminus (phage display carrier) and any cloning-site junction) SHLVKCAEKEKTFCVNGGECFMAKDLSNPSRYLCKCPNEFTGDRCQNYVMASFYKHLGIEFMEAEELY
### Response 47

### Prompt I would be grateful if you could share the reported EC50 for HRG-β1 177-244 T217A on phage (ligand, not shown: M13 pIII fragment from residue 247 to the C-terminus (phage display carrier) and any cloning-site junction) SHLVKCAEKEKTFCVNGGECFMVKDLSNPSRYLCKCPNEFAGDRCQNYVMASFYKHLGIEFMEAEELY .
### Response 14.2

### Prompt So what's the measured EC50 for this one? HRG-β1 177-244 P205A on phage (ligand, not shown: M13 pIII fragment from residue 247 to the C-terminus (phage display carrier) and any cloning-site junction) SHLVKCAEKEKTFCVNGGECFMVKDLSNASRYLCKCPNEFTGDRCQNYVMASFYKHLGIEFMEAEELY
### Response 8

### Prompt # query: EC50 of entry HRG-β1 177-244 G194A on phage (ligand, not shown: M13 pIII C-terminal fragment (from pIII residue 247), the phage display partner) SHLVKCAEKEKTFCVNGAECFMVKDLSNPSRYLCKCPNEFTGDRCQNYVMASFYKHLGIEFMEAEELY
### Response 65

### Prompt I have this binder here, HRG-β1 177-244 K200A on phage (ligand, also called K2OO; not shown: M13 pIII fragment from residue 247 to the C-terminus (phage display carrier) and any cloning-site junction) SHLVKCAEKEKTFCVNGGECFMVADLSNPSRYLCKCPNEFTGDRCQNYVMASFYKHLGIEFMEAEELY , and I need its recorded EC50.
### Response 25

### Prompt Please look up its EC50: HRG-β1 177-244 S177A on phage (ligand, not shown: M13 pIII C-terminal fragment (from pIII residue 247), the phage display partner) AHLVKCAEKEKTFCVNGGECFMVKDLSNPSRYLCKCPNEFTGDRCQNYVMASFYKHLGIEFMEAEELY
### Response 83

### Prompt Quick check: EC50 of HRG-β1 177-244 H178A on phage (ligand, not shown: M13 pIII C-terminal fragment (from pIII residue 247), the phage display partner) SALVKCAEKEKTFCVNGGECFMVKDLSNPSRYLCKCPNEFTGDRCQNYVMASFYKHLGIEFMEAEELY ?
### Response 32

### Prompt Given the entry HRG-β1 177-244 N192A on phage (ligand, not shown: M13 pIII C-terminal fragment (from pIII residue 247), the phage display partner) SHLVKCAEKEKTFCVAGGECFMVKDLSNPSRYLCKCPNEFTGDRCQNYVMASFYKHLGIEFMEAEELY , report its measured EC50.
### Response 188

### Prompt Tell me the measured EC50 of HRG-β1 177-244 E195A on phage (ligand, not shown: M13 pIII C-terminal fragment (from pIII residue 247), the phage display partner) SHLVKCAEKEKTFCVNGGACFMVKDLSNPSRYLCKCPNEFTGDRCQNYVMASFYKHLGIEFMEAEELY , please.
### Response 24

### Prompt I'd like to know its EC50. The binder in question is HRG2: HRG-β1 177-244 displayed on phage, fused to pIII 247 (ligand, phage M13, range 247-C-terminus; Monovalent phage display; also called pHRG2-g3) SHLVKCAEKEKTFCVNGGECFMVKDLSNPSRYLCKCPNEFTGDRCQNYVMASFYKHLGIEFMEAEELYGGSGGGSGSGDFDYEKMANANKGAMTENADENALQSDAKGKLDSVATDYGAAIDGFIGDVSGLANGNGATGDFAGSNSQMAQVGDGDNSPLMNNFRQYLPSLPQSVECRPFVFSAGKPYEFSIDCDKINLFRGVFAFLLYVATFMYVFSTFANILRNKES
### Response 19

### Prompt # query: EC50 of entry HRG-β1 177-244 K211A on phage (ligand, not shown: M13 pIII fragment from residue 247 to the C-terminus (phage display carrier) and any cloning-site junction) SHLVKCAEKEKTFCVNGGECFMVKDLSNPSRYLCACPNEFTGDRCQNYVMASFYKHLGIEFMEAEELY
### Response 59

### Prompt Query: EC50; subject: HRG-β1 177-244 Y224A on phage (ligand, not shown: M13 pIII C-terminal fragment (from pIII residue 247), the phage display partner) SHLVKCAEKEKTFCVNGGECFMVKDLSNPSRYLCKCPNEFTGDRCQNAVMASFYKHLGIEFMEAEELY
### Response 51

### Prompt Give its EC50 value. Item: HRG-β1 177-244 R207A on phage (ligand, not shown: M13 pIII fragment from residue 247 to the C-terminus (phage display carrier) and any cloning-site junction) SHLVKCAEKEKTFCVNGGECFMVKDLSNPSAYLCKCPNEFTGDRCQNYVMASFYKHLGIEFMEAEELY
### Response 30
